- System: Bacillus pumilus
- Protocol Description: Antimicrobial activity against the strain of Bacillus pumilus(1697)
- Type: functional
Would you mind telling me the reported MIC of each entry?

>  <Structure Notation>
COC(=O)/C=C/C(=O)NC[C@@H](N)C(=O)NCC(=O)O

>  <Subject Of Test>
Bacillus pumilus

>  <Result>
> 200 µg/mL

$$$$
>  <Structure Notation>
COC(=O)/C=C/C(=O)NC[C@@H](NC(=O)[C@@H](N)CC(C)C)C(=O)O

>  <Subject Of Test>
Bacillus pumilus

>  <Result>
1.56 µg/mL

$$$$

Take each entry in turn and give its MIC.
1. COC(=O)/C=C/C(=O)NC[C@@H](N)C(=O)N[C@@H](Cc1ccccc1)C(=O)O
2. COC(=O)/C=C/C(=O)NC[C@@H](NC(=O)[C@@H](N)Cc1ccc(O)cc1)C(=O)O
3. COC(=O)/C=C/C(=O)NC[C@@H](N)C(=O)O
4. CCC[C@H](NC(=O)[C@H](N)CNC(=O)/C=C/C(=O)OC)C(=O)O
5. COC(=O)/C=C/C(=O)NC[C@@H](N)C(=O)N[C@@H](CC(C)C)C(=O)O
6. CCC[C@H](N)C(=O)N[C@H](CNC(=O)/C=C/C(=O)OC)C(=O)O
7. COC(=O)/C=C/C(=O)NC[C@@H](NC(=O)CN)C(=O)O
8. COC(=O)/C=C/C(=O)NC[C@@H](N)C(=O)N[C@H](C(=O)O)C(C)C

["> 200 µg/mL", "12.5 µg/mL", "> 200 µg/mL", "> 200 µg/mL", "> 200 µg/mL", "0.4 µg/mL", "25 µg/mL", "> 200 µg/mL"]

Entry COC(=O)/C=C/C(=O)NC[C@@H](N)C(=O)N[C@@H](Cc1ccc(O)cc1)C(=O)O , Bacillus pumilus data, MIC value: > 200 µg/mL

====

- Tested on: Candida albicans
- Protocol Description: Antifungal activity against Candida albicans ATCC 26278 strain in YNB medium after incorporation of 10 ug per disk.
- Type: functional
Would you mind telling me the reported Zone size of each entry?
Numbers only, in mm.

Examples with answers:
>  <Structure Notation>
COC(=O)/C=C/C(=O)NC[C@@H](NC(=O)[C@@H](N)CC(C)C)C(=O)O

>  <Subject Of Test>
Candida albicans

>  <Recorded Number>
39

$$$$
>  <Structure Notation>
Clc1ccccc1C(c1ccccc1)(c1ccccc1)n1ccnc1

>  <Subject Of Test>
Candida albicans

>  <Recorded Number>
17

$$$$

Take each entry in turn and give its Zone size.
1. CCC[C@H](N)C(=O)N[C@H](CNC(=O)/C=C/C(=O)OC)C(=O)O
2. Nc1nc(=O)[nH]cc1F
3. COC(=O)/C=C/C(=O)NC[C@@H](N)C(=O)N[C@@H](CCSC)C(=O)O

[40, 35, 31]

====

Would you mind telling me the reported log10(MIC) of each entry?
- System: Bacillus pumilus
- Protocol Description: Antimicrobial activity against the strain of Bacillus pumilus(1697)
- Assay type: functional
The common logarithm of MIC in µg/mL is what is listed.

Examples with answers:
>  <Structure Notation>
COC(=O)/C=C/C(=O)NC[C@@H](NC(=O)[C@@H](N)C(C)C)C(=O)O

>  <Property Measured>
log10(MIC)

>  <Recorded Number>
-0.10

$$$$
>  <Structure Notation>
COC(=O)/C=C/C(=O)NC[C@@H](NC(=O)[C@H](C)N)C(=O)O

>  <Property Measured>
log10(MIC)

>  <Recorded Number>
0.19

$$$$
>  <Structure Notation>
COC(=O)/C=C/C(=O)NC[C@@H](NC(=O)[C@@H](N)CCSC)C(=O)O

>  <Property Measured>
log10(MIC)

>  <Recorded Number>
0.49

$$$$
>  <Structure Notation>
COC(=O)/C=C/C(=O)NC[C@@H](NC(=O)[C@@H](N)CCCCN)C(=O)O

>  <Property Measured>
log10(MIC)

>  <Recorded Number>
2.00

$$$$
>  <Structure Notation>
CCCC[C@H](N)C(=O)N[C@H](CNC(=O)/C=C/C(=O)OC)C(=O)O

>  <Property Measured>
log10(MIC)

>  <Recorded Number>
-0.40

$$$$

Now let's try a different one.
Entry COC(=O)/C=C/C(=O)NC[C@@H](NC(=O)[C@@H](N)Cc1ccccc1)C(=O)O , Bacillus pumilus data, log10(MIC) value: 0.80

Reference source: ChEMBL document CHEMBL1123602
